Target: Galectin-4 (Homo sapiens)
Sequence (P56470 whole entry): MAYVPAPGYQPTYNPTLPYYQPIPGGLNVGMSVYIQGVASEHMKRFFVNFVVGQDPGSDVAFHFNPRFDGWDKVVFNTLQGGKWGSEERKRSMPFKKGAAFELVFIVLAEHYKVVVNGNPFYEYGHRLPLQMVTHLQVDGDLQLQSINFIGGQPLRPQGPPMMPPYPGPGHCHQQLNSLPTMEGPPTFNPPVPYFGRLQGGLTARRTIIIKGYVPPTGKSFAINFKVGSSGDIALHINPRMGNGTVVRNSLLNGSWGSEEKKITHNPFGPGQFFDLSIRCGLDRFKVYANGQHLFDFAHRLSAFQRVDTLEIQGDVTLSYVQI
Assay: Binding affinity to human galectin-4N expressed in Escherichia coli BL21 using 3,3'-dideoxy-3-[4-(fluorescein-5-yl-carbonylaminomethyl)-1H-1,2,3-triazol-1-y1]-3'-(3,5-dimethoxy-benzamido)-1,1'-sulfanediyl-di-beta-D-galactopyranoside as fluorescent probe by fluorescence polarization analysis
Provide the reported Kd of each item.
One number for each entry, in µM.

{"given smiles": "CO[C@@H]1O[C@H](CO)[C@H](O)[C@H](OC(=O)c2ccc(C)cc2)[C@@H]1OC(=O)c1ccccc1[N+](=O)[O-]", "tested on": "Galectin-4 (Homo sapiens)", "measured attribute": "Kd", "numeric result": 440}
{"given smiles": "CO[C@@H]1O[C@H](CO)[C@H](O)[C@H](OC(=O)c2ccc(C)cc2)[C@@H]1OC(=O)c1ccc(C(F)(F)F)cc1[N+](=O)[O-]", "tested on": "Galectin-4 (Homo sapiens)", "measured attribute": "Kd", "numeric result": 1400}
{"given smiles": "CO[C@@H]1O[C@H](CO)[C@H](O)[C@H](OC(=O)c2ccc(C)cc2)[C@@H]1OC(=O)c1cccc([N+](=O)[O-])c1", "tested on": "Galectin-4 (Homo sapiens)", "measured attribute": "Kd", "numeric result": 1400}
{"given smiles": "CO[C@@H]1O[C@H](CO)[C@H](O)[C@H](OC(=O)c2ccc(C)cc2)[C@@H]1OC(=O)c1ccc(F)cc1[N+](=O)[O-]", "tested on": "Galectin-4 (Homo sapiens)", "measured attribute": "Kd", "numeric result": 710}

Consider the record given below.
Which measured Kd value corresponds to CO[C@@H]1O[C@H](CO)[C@H](O)[C@H](OC(=O)c2ccc(C)cc2)[C@@H]1OC(=O)c1ccc(Cl)cc1[N+](=O)[O-] ?
250

Recorded values, source ChEMBL document CHEMBL5154868.
